Entries and their measured HUMAN MICROSOMAL STABILITY (% REMAINING AFTER 30 MINUTES) follow.
Assay: In vitro human microsomal stability assay
Assay type: in vitro ADME
Conditions: human, 0.5 h, 0.5 μM, pH 7.4
readout_type: HUMAN MICROSOMAL STABILITY (% REMAINING AFTER 30 MINUTES)

- molecule: "OC1CC(c2ccnc(C(F)(F)F)c2)(C(O)c2ccccn2)C1 (stereo not shown) [Example 306]"
  experimental_value: ">85%"
- molecule: "OC1CC(c2ccc(C(F)(F)F)cc2)([C@@H](O)c2ccccn2)C1 (mixture of isomers) [Example 199]"
  experimental_value: ">85%"
- molecule: "OC(c1ccccn1)C1(c2ccncc2)CCC1 (stereo not shown) [Example 21]"
  experimental_value: "71%"
- molecule: "OC(c1ccccn1)C1(c2ccc(C(F)(F)F)cc2)CCNCC1 (stereo not shown) [Example 147]"
  experimental_value: ">85%"
- molecule: "CC1(O)CC(c2ccnc(C(F)(F)F)c2)(C(O)c2ccccn2)C1 (stereo not shown) [Example 307]"
  experimental_value: "73%"
- molecule: "N[C@H]1CCC[C@H]1[C@@H](O)C1(c2ccc(OC(F)(F)F)cc2)CCC1 [Example 229]"
  experimental_value: ">85%"
- molecule: "OC1CC(c2ccc(Cl)c(Cl)c2)(C(O)c2ccccn2)C1 (single isomer, unassigned) [Example 119]"
  experimental_value: ">85%"
- molecule: "OC(C1CCCc2cccnc21)C1(c2ccc(OC(F)(F)F)cc2)CCC1 (single isomer, unassigned) [Example 178]"
  experimental_value: "9.2%"
- molecule: "OC(c1ccccn1)C1(c2ccnc(C(F)(F)F)c2)CC2(C1)OCCO2 (stereo not shown) [Example 297]"
  experimental_value: ">85%"
- molecule: "OC(c1ccccn1)C1(c2ccc(C(F)(F)F)cc2)CNC1 (stereo not shown) [Example 152]"
  experimental_value: ">85%"
- molecule: "OC1CC(c2ccc(Cl)c(Cl)c2)(C(O)c2ncccn2)C1 (stereo not shown) [Example 312]"
  experimental_value: ">85%"
- molecule: "N[C@H]1CCC[C@H]1[C@@H](O)C1(c2ccccc2F)CCC1 [Example 226]"
  experimental_value: ">85%"
- molecule: "OC(c1ccccn1)C1(c2ccccn2)CCC1 (stereo not shown) [Example 19]"
  experimental_value: ">85%"
- molecule: "O=C1CC(c2ccc(C(F)(F)F)cc2)(C(O)c2ccccn2)C1 (stereo not shown) [Example 160]"
  experimental_value: ">85%"
- molecule: "OC(c1ccccn1)C1(c2ccccc2F)CCCO1 (stereo not shown) [Example 102]"
  experimental_value: "45%"
- molecule: "NC1CCC1C(O)C1(c2cccc(C(F)(F)F)c2)CCC1 (stereo not shown) [Example 213]"
  experimental_value: ">85%"
